Where these numbers come from: BigSolDB 2.1

- TEST_CONTEXT: in 2-pentanone, 288.35 K
MEASURE_NAME: solubility (mole fraction)
Enter the number alone.

QUERY: Value lookup for solubility (mole fraction); key = "CCCCCCCC(=O)NCC(=O)O"
RESULT: 0.0148

###

- TEST_CONTEXT: in ethyl acetate, 303.15 K
MEASURE_NAME: solubility (mole fraction)

QUERY: Value lookup for solubility (mole fraction); key = "CCCCCCCC(=O)NCC(=O)O"
RESULT: 0.0162

###

- TEST_CONTEXT: in methyl acetate, 293.05 K
MEASURE_NAME: solubility (mole fraction)
Enter the number alone.

QUERY: Value lookup for solubility (mole fraction); key = "CCCCCCCC(=O)NCC(=O)O"
RESULT: 0.00895

###

- TEST_CONTEXT: in n-pentanol, 323.15 K
MEASURE_NAME: solubility (mole fraction)
Enter the number alone.

QUERY: Value lookup for solubility (mole fraction); key = "CCCCCCCC(=O)NCC(=O)O"
RESULT: 0.32

###

- TEST_CONTEXT: in ethyl formate, 298.15 K
MEASURE_NAME: solubility (mole fraction)
Enter the number alone.

QUERY: Value lookup for solubility (mole fraction); key = "CCCCCCCC(=O)NCC(=O)O"
RESULT: 0.00981

###

- TEST_CONTEXT: in methyl acetate, 303.15 K
MEASURE_NAME: solubility (mole fraction)
Enter the number alone.

QUERY: Value lookup for solubility (mole fraction); key = "CCCCCCCC(=O)NCC(=O)O"
RESULT: 0.0174

###

- TEST_CONTEXT: in n-butanol, 303.15 K
MEASURE_NAME: solubility (mole fraction)
Enter the number alone.

QUERY: Value lookup for solubility (mole fraction); key = "CCCCCCCC(=O)NCC(=O)O"
RESULT: 0.13

###

- TEST_CONTEXT: in n-pentanol, 317.65 K
MEASURE_NAME: solubility (mole fraction)
Enter the number alone.

QUERY: Value lookup for solubility (mole fraction); key = "CCCCCCCC(=O)NCC(=O)O"
RESULT: 0.249

###

- TEST_CONTEXT: in isopropanol, 273.15 K
MEASURE_NAME: solubility (mole fraction)
Enter the number alone.

QUERY: Value lookup for solubility (mole fraction); key = "CCCCCCCC(=O)NCC(=O)O"
RESULT: 0.0153

###

- TEST_CONTEXT: in isobutanol, 273.15 K
MEASURE_NAME: solubility (mole fraction)
Enter the number alone.

QUERY: Value lookup for solubility (mole fraction); key = "CCCCCCCC(=O)NCC(=O)O"
RESULT: 0.0204

###

- TEST_CONTEXT: in 2-pentanone, 283.15 K
MEASURE_NAME: solubility (mole fraction)
Enter the number alone.

QUERY: Value lookup for solubility (mole fraction); key = "CCCCCCCC(=O)NCC(=O)O"
RESULT: 0.00984

###

- TEST_CONTEXT: in cyclohexanone, 298.15 K
MEASURE_NAME: solubility (mole fraction)
Enter the number alone.

QUERY: Value lookup for solubility (mole fraction); key = "CCCCCCCC(=O)NCC(=O)O"
RESULT: 0.0508

###

- TEST_CONTEXT: in methanol, 323.15 K
MEASURE_NAME: solubility (mole fraction)
Enter the number alone.

QUERY: Value lookup for solubility (mole fraction); key = "CCCCCCCC(=O)NCC(=O)O"
RESULT: 0.555

###

- TEST_CONTEXT: in 2-pentanone, 273.15 K
MEASURE_NAME: solubility (mole fraction)
Enter the number alone.

QUERY: Value lookup for solubility (mole fraction); key = "CCCCCCCC(=O)NCC(=O)O"
RESULT: 0.00491

###

- TEST_CONTEXT: in ethyl acetate, 283.15 K
MEASURE_NAME: solubility (mole fraction)
Enter the number alone.

QUERY: Value lookup for solubility (mole fraction); key = "CCCCCCCC(=O)NCC(=O)O"
RESULT: 0.00455

###

- TEST_CONTEXT: in methanol, 278.15 K
MEASURE_NAME: solubility (mole fraction)
Enter the number alone.

QUERY: Value lookup for solubility (mole fraction); key = "CCCCCCCC(=O)NCC(=O)O"
RESULT: 0.0478

###

- TEST_CONTEXT: in cyclohexanone, 273.15 K
MEASURE_NAME: solubility (mole fraction)
Enter the number alone.

QUERY: Value lookup for solubility (mole fraction); key = "CCCCCCCC(=O)NCC(=O)O"
RESULT: 0.0112

###

- TEST_CONTEXT: in ethyl formate, 317.65 K
MEASURE_NAME: solubility (mole fraction)
Enter the number alone.

QUERY: Value lookup for solubility (mole fraction); key = "CCCCCCCC(=O)NCC(=O)O"
RESULT: 0.0336

###

- TEST_CONTEXT: in 2-butanone, 317.65 K
MEASURE_NAME: solubility (mole fraction)
Enter the number alone.

QUERY: Value lookup for solubility (mole fraction); key = "CCCCCCCC(=O)NCC(=O)O"
RESULT: 0.0806

###

- TEST_CONTEXT: in ethanol, 308.05 K
MEASURE_NAME: solubility (mole fraction)
Enter the number alone.

QUERY: Value lookup for solubility (mole fraction); key = "CCCCCCCC(=O)NCC(=O)O"
RESULT: 0.168

###

- TEST_CONTEXT: in n-pentanol, 298.15 K
MEASURE_NAME: solubility (mole fraction)
Enter the number alone.

QUERY: Value lookup for solubility (mole fraction); key = "CCCCCCCC(=O)NCC(=O)O"
RESULT: 0.095

###

- TEST_CONTEXT: in methanol, 313.25 K
MEASURE_NAME: solubility (mole fraction)
Enter the number alone.

QUERY: Value lookup for solubility (mole fraction); key = "CCCCCCCC(=O)NCC(=O)O"
RESULT: 0.343

###

- TEST_CONTEXT: in ethyl formate, 303.15 K
MEASURE_NAME: solubility (mole fraction)
Enter the number alone.

QUERY: Value lookup for solubility (mole fraction); key = "CCCCCCCC(=O)NCC(=O)O"
RESULT: 0.0133

###

- TEST_CONTEXT: in ethyl formate, 273.15 K
MEASURE_NAME: solubility (mole fraction)
Enter the number alone.

QUERY: Value lookup for solubility (mole fraction); key = "CCCCCCCC(=O)NCC(=O)O"
RESULT: 0.0016

###

- TEST_CONTEXT: in cyclopentanone, 273.15 K
MEASURE_NAME: solubility (mole fraction)
Enter the number alone.

QUERY: Value lookup for solubility (mole fraction); key = "CCCCCCCC(=O)NCC(=O)O"
RESULT: 0.0144

###

- TEST_CONTEXT: in isobutanol, 323.15 K
MEASURE_NAME: solubility (mole fraction)
Enter the number alone.

QUERY: Value lookup for solubility (mole fraction); key = "CCCCCCCC(=O)NCC(=O)O"
RESULT: 0.159

###

- TEST_CONTEXT: in cyclopentanone, 283.15 K
MEASURE_NAME: solubility (mole fraction)
Enter the number alone.

QUERY: Value lookup for solubility (mole fraction); key = "CCCCCCCC(=O)NCC(=O)O"
RESULT: 0.0269

###

- TEST_CONTEXT: in 2-pentanone, 298.15 K
MEASURE_NAME: solubility (mole fraction)
Enter the number alone.

QUERY: Value lookup for solubility (mole fraction); key = "CCCCCCCC(=O)NCC(=O)O"
RESULT: 0.0244

###

- TEST_CONTEXT: in cyclopentanone, 308.05 K
MEASURE_NAME: solubility (mole fraction)

QUERY: Value lookup for solubility (mole fraction); key = "CCCCCCCC(=O)NCC(=O)O"
RESULT: 0.103

###

- TEST_CONTEXT: in isopentanol, 317.65 K
MEASURE_NAME: solubility (mole fraction)

QUERY: Value lookup for solubility (mole fraction); key = "CCCCCCCC(=O)NCC(=O)O"
RESULT: 0.166

###

- TEST_CONTEXT: in methanol, 283.15 K
MEASURE_NAME: solubility (mole fraction)
Enter the number alone.

QUERY: Value lookup for solubility (mole fraction); key = "CCCCCCCC(=O)NCC(=O)O"
RESULT: 0.0653

###

- TEST_CONTEXT: in cyclohexanone, 293.05 K
MEASURE_NAME: solubility (mole fraction)
Enter the number alone.

QUERY: Value lookup for solubility (mole fraction); key = "CCCCCCCC(=O)NCC(=O)O"
RESULT: 0.0378

###

- TEST_CONTEXT: in acetone, 298.15 K
MEASURE_NAME: solubility (mole fraction)

QUERY: Value lookup for solubility (mole fraction); key = "CCCCCCCC(=O)NCC(=O)O"
RESULT: 0.0562

###

- TEST_CONTEXT: in n-pentanol, 273.15 K
MEASURE_NAME: solubility (mole fraction)

QUERY: Value lookup for solubility (mole fraction); key = "CCCCCCCC(=O)NCC(=O)O"
RESULT: 0.0226

###

- TEST_CONTEXT: in 2-butanone, 288.35 K
MEASURE_NAME: solubility (mole fraction)
Enter the number alone.

QUERY: Value lookup for solubility (mole fraction); key = "CCCCCCCC(=O)NCC(=O)O"
RESULT: 0.0266
